Tested on: SNB-75 CNS
Experiment: NCI tumour cell line growth inhibition, 48 h
Assignment: determine reported TGI for the given compounds.
The reply should contain only the number, in µM.

For "C[C@@H]1COCCN1c1nc(-c2cnc(N)cc2C(F)F)nc(N2[C@H](C)COC[C@@H]2C)n1" , what is its reported TGI? 0.571

For "Cc1cc(Nc2ccc(N=Nc3ccc(O)c4ncccc34)cc2)nc(C)n1" , what is its reported TGI? 43.6

For CC1CCc2c(sc3ncnc(N/N=C/c4ccc(Cl)c(Cl)c4)c23)C1 (stereo unspecified) , what is its reported TGI? 61.6

For "CC(=Nc1c2ccccc2nc2ccccc12)N(C)C" , what is its reported TGI? 71

* * *

Test system: HOP-62 NSCLC
Assay: NCI tumour cell line growth inhibition, 48 h; in the data active = GI50 below about 0.43 µM; inactive = the rest
The categories you may choose from are Y (active), N (inactive)

// param item: "CNc1nc(C)c(-c2nc(Nc3cccc(S(N)(=O)=O)c3)ncc2F)s1" ; yields the recorded call Y

// param item: COc1cc2c(c(OC)c1OC)-c1ccc(NNC(=S)N(Cc3cccc(C[N+](Cc4cccc(CNC56CC7CC(CC(C7)C5)C6)c4)(Cc4cccc(CNC56CC7CC(CC(C7)C5)C6)c4)Cc4cccc(CN(C(=S)NNc5ccc6c(cc5=O)[C@@H](NC(C)=O)CCc5cc(OC)c(OC)c(OC)c5-6)C56CC7CC(CC(C7)C5)C6)c4)c3)C34CC5CC(CC(C5)C3)C4)c(=O)cc1[C@@H](NC(C)=O)CC2 (some centres not stated) ; yields the recorded call N

* * *

Test system: SR leukemia
Test: NCI tumour cell line growth inhibition, 48 h
measured_quantity: GI50

For "N#Cc1cccc(C(=O)c2cnn(-c3ccc(F)cc3)c2N)c1" , what is its reported GI50? > 25 µM

For O=c1[nH]cnc2c1nnn2C1OC(CO)C(O)C1O (stereo not drawn) , what is its reported GI50? 3.37 µM

For "Cc1nc2cncc(C#Cc3cncc(C(=O)Nc4ccc(CN5CCN(C)CC5)c(C(F)(F)F)c4)c3)c2nc1C" , what is its reported GI50? 0.46 µM

* * *

Assignment: determine reported TGI for the given compounds.
Tested on: SF-268 CNS
Experiment: NCI tumour cell line growth inhibition, 48 h

For O=C1O[C@H](C(Cl)(Cl)Cl)N2CCCC12 (some centres undefined) , what is its reported TGI? > 100 µM

For "O=C1C=C2CO[C@H]3OC[C@H](O)[C@@H]1[C@@H]23" , what is its reported TGI? > 100 µM

For CC1CCC2(NC1)OC1CC3[C@@H]4CC=C5C=CCC[C@]5(C)C4CC[C@]3(C)C1C2C (some centres undefined) , what is its reported TGI? > 100 µM

For "CC(=N\O)/C(C)=N/O.CC(=N\O)/C(C)=N/O.CC(=N\O)/C(C)=N/O.CC(=N\O)/C(C)=N/O.[Cu].[Cu]" , what is its reported TGI? 34.6 µM

For "CCOC(=O)c1cc2c(n1Cc1cc(OC)cc(OC)c1)-c1oncc1CCC2" , what is its reported TGI? > 100 µM

For COc1ccc(C2=CC(c3cc(OC)c(OC)c(OC)c3)NC(=O)N2)cc1OC (centres undefined) , what is its reported TGI? 14.5 µM

For CC1CC[C@@]2(OC1)O[C@H]1C[C@H]3[C@@H]4CC[C@H]5C[C@@H](OC6OC(CO)C(OC7OC(CO)C(OC8OC(CO)C(O)C(OC9OC(C)C(OC%10OC(C)C(O)C(O)C%10O)C(O)C9O)C8OC8OCC(O)C(O)C8O)C(O)C7O)C(O)C6O)CC[C@]5(C)[C@H]4CC(=O)[C@]3(C)[C@H]1[C@@H]2C (some centres undefined) , what is its reported TGI? 56.9 µM

For "CS(=O)(=O)OCCN1CCN(C(=O)c2cccc3c(Nc4ccc(S(N)(=O)=O)cc4)c4ccccc4nc23)CC1" , what is its reported TGI? > 100 µM

For "O=C1c2ccccc2-c2nccc3cc(Cl)nc1c23" , what is its reported TGI? 4.28 µM

For "COc1ccc(-c2nc(-c3cc4ccccc4oc3=O)cs2)cc1" , what is its reported TGI? > 100 µM

For "Cc1nccn1S(=O)(=O)c1ccc(Br)cc1Br" , what is its reported TGI? > 100 µM

For C=CCC12CCC(=O)C=C1CCC1(C2)OCCO1 (centres undefined) , what is its reported TGI? > 100 µM

For "Cc1ccc(C)c(COCCOCn2cc(Br)c(N)nc2=O)c1" , what is its reported TGI? > 100 µM

For "C=C1C(=O)O[C@H]2C/C(C)=C/CC/C(C)=C/CC[C@@](C)(O)[C@@H](I)C[C@@H]12" , what is its reported TGI? 31.9 µM

For "O=c1[nH]c(-c2ccccc2)nc2ccc(Cl)cc12" , what is its reported TGI? > 100 µM

For "CNc1nc(C)c(-c2nc(Nc3cccc(S(N)(=O)=O)c3)ncc2F)s1" , what is its reported TGI? 1.44 µM

For "CCOP(=O)(OCC)/C(=C\N1C(=O)CC(=O)NC1=S)C(=O)OC" , what is its reported TGI? > 100 µM

For "COc1cc(C(=O)/C=C/c2c(-c3ccc(F)cc3)nc3sc(C)cn23)cc(OC)c1OC" , what is its reported TGI? > 100 µM

For "COc1ccc(/C=C(\C(=C/c2ccc(OC)cc2)[N+](=O)[O-])[N+](=O)[O-])cc1" , what is its reported TGI? 20.8 µM

For "Cc1cc(NS(=O)(=O)c2ccc(NC(=O)c3cccc4c(NNc5ccc(S(=O)(=O)N=C(N)N)cc5)c5ccccc5nc34)cc2)no1" , what is its reported TGI? > 100 µM

For "CNC(=O)c1c(NC(=O)c2cccc(C(F)(F)F)c2)sc2c1CCC(=O)C2" , what is its reported TGI? > 100 µM

For OCC(Cn1cncn1)(c1ccc(F)cc1F)n1cncn1 (centres undefined) , what is its reported TGI? > 100 µM

For "CCc1nn(S(=O)(=O)c2ccc(C)cc2)c2c1CS(=O)(=O)CC2" , what is its reported TGI? > 100 µM

For OCC(O)C1OC2CC1Nc1ccccc1N2 (centres undefined) , what is its reported TGI? > 100 µM

For CC(NC1=NCCO1)c1cccc([N+](=O)[O-])c1 (centres undefined) , what is its reported TGI? > 100 µM

For "Cn1c(=O)c(Oc2cccc(F)c2)cc2cnc(NC3CCOCC3)nc21" , what is its reported TGI? > 25 µM

For COc1ccc(-c2nsc3c2NC(=O)CC3c2ccc3c(c2)OCO3)cc1 (centres undefined) , what is its reported TGI? > 100 µM

For "CS(=O)(=O)N(CCC#N)c1ccc(/C=N/NC(=O)CC(=O)Nc2cccc(Cl)c2)cc1" , what is its reported TGI? > 100 µM

For "COc1ccc(Nc2ncccc2/C=C/C(=O)c2cc(OC)c(OC)c(OC)c2)cc1" , what is its reported TGI? 4.08 µM

For "N#Cc1cccc(C(=O)c2cnn(-c3ccc(F)cc3)c2N)c1" , what is its reported TGI? > 25 µM

For "Cc1[nH]c(C(=O)Nc2ccc(C(=O)N3CCNCC3)cc2OC(C)C)c(Cl)c1Cl" , what is its reported TGI? 3.81 µM

For [N-]=[N+]=NC1CC(n2cc(COCC(F)(F)F)c(=O)[nH]c2=O)OC1CO (centres undefined) , what is its reported TGI? > 100 µM

For "CCN(CC)c1ccc(N=C2C=CC(=O)c3ncccc32)c(C)c1" , what is its reported TGI? 21.3 µM

For O=C1OC2(C(F)(F)F)Oc3ccccc3CN2C12CCCCC2 (centres undefined) , what is its reported TGI? > 100 µM

For COc1cc([C@@H]2c3cc4c(cc3C(Br)[C@H]3COC(=O)[C@H]23)OCO4)cc(OC)c1OC (some centres undefined) , what is its reported TGI? > 100 µM

For "N#CCCN(CCC#N)c1ccc(/C=C2\N=C(COc3ccc(Cl)cc3Cl)OC2=O)cc1" , what is its reported TGI? > 100 µM

For "CCOCC(=O)N[C@H]1CCc2cc(OC)c(OC)c(OC)c2-c2ccc(SC)c(=O)cc21" , what is its reported TGI? > 90.9 µM

For "Nc1ccc(-c2nc3ccccc3[nH]2)c(O)c1" , what is its reported TGI? > 100 µM

For "COC(=O)c1nc(-c2ccc3c(n2)C(=O)C(N)=C(OC)C3=O)c(N)c(-c2ccc(OC)c(OC)c2O)c1C" , what is its reported TGI? 5.25 µM

* * *

Tested on: DU-145 prostate
Test: NCI tumour cell line growth inhibition, 48 h; in the data active = GI50 below about 0.43 µM; inactive = the rest
The categories you may choose from are active, inactive

// param item: "CN(C)c1ccc(C(=O)c2ccc(N(C)C)c(N)c2)cc1N" ; yields the recorded call inactive

// param item: "CCCCCCCCCCCCCC[P+](CCCCCC)(CCCCCC)CCCCCC" ; yields the recorded call active

// param item: "Cc1nc2cncc(C#Cc3cncc(C(=O)Nc4ccc(CN5CCN(C)CC5)c(C(F)(F)F)c4)c3)c2nc1C" ; yields the recorded call active

// param item: "Cc1cccc2nc3cccc(C(=O)NCCC[N+](C)(CCCNC(=O)c4cccc5nc6cccc(C)c6nc45)Cc4c([N+](=O)[O-])ncn4C)c3nc12" ; yields the recorded call inactive

// param item: "Cc1ccccc1S(=O)(=O)N1[C@H](c2ccc(Cl)cc2)C(C(=O)N[C@@H](Cc2ccccc2)C(N)=O)=C[C@@H]1C(C)(C)C" ; yields the recorded call inactive

// param item: "CN(C)C(=S)NN=C(c1ccccn1)c1ccccn1" ; yields the recorded call active

// param item: "CSc1ccc(-c2cc(-c3ccc(NC(=O)CCCN4CCCC4)cc3)nc(-c3ccc(NC(=O)CCCN4CCCC4)cc3)c2)cc1" ; yields the recorded call inactive

// param item: "CCc1ccc(-c2ccc(=O)n(-c3ccc(S(N)(=O)=O)cc3)n2)cc1" ; yields the recorded call inactive

// param item: "Nc1ccccc1NC(=O)CCCCCCC(=O)Nc1ccc2c(c1)/C(=C/c1ccc[nH]1)C(=O)N2" ; yields the recorded call inactive

// param item: "CCN(CC)CCOc1ccc(Nc2ncc3cc(-c4c(Cl)cccc4Cl)c(=O)n(CCOC)c3n2)cc1" ; yields the recorded call active

// param item: "OCCCCC#Cc1ccccc1C#Cc1ccccc1F" ; yields the recorded call inactive

// param item: "CN(C)/C=C/c1nnnn1-c1ccc(Cl)cc1" ; yields the recorded call inactive

// param item: "NC(N)=N/N=C/c1c(-c2cccs2)nc2sccn12" ; yields the recorded call inactive

// param item: "OCc1cccc(-c2ccc3ncc(-c4nc(NC5CC5)ncc4F)n3c2)c1" ; yields the recorded call active
